System: anti-M2 human monoclonal antibody Z3G1
Type: binding
Signal (peptides that show specific binding to Z3G1) values for the substances below.
Output: the number by itself.

Some solved entries appear below for comparison.
649 (SLLTEVETTIRNEWGCRCNDSSD; epitope peptide) [compound 649]: 2295
580 (SLCTEVGCSLLTEV; epitope peptide) [compound 580]: 2382
327 (SLMTEVETPIRNEWGCRCNDSSD; epitope peptide) [compound 327]: 2149
512 (SLLTEVETPIRNQWGCRCNDSSD; epitope peptide) [compound 512]: 2402
638 (SLLTEVETPIRNEWGTRCNDSSD; epitope peptide) [compound 638]: 2404
646 (SLLTEVEGPIRNEWGCRCNDSSD; epitope peptide) [compound 646]: 2341
1534 (SLLCEVETPIRNEWGCRCNDSSD; epitope peptide) [compound 1534]: 2161
671 (SLLTEVETPIRNEPGCRCNDSSD; epitope peptide) [compound 671]: 2279

Now for the substance whose Signal (peptides that show specific binding to Z3G1) we want.
Ask | So what Signal (peptides that show specific binding to Z3G1) did 1575 (WLLTEVETPIRNEWGCRCNDSSD; epitope peptide) [compound 1575] get with anti-M2 human monoclonal antibody Z3G1?
Reply | 2180
